method-summary: in vivo
reported-conditions: rat
result-type: half-life

Quick check: half-life of COC(=O)C1(OC(=O)c2cncn2[C@H](C)c2ccccc2)CC1 [Cyclopropyl- methoxycarbonyl metomidate, cyclopropyl-methoxycarbonyl metomidate] ?
~20 min

Attribution: patent US10154991B2
